Species on record: Mus musculus
Experiment Summary: Anticonvulsant activity against audiogenic seizures in DBA/2 mice
Type: functional
Entries and their log10(ED50)
Heads up: the numbers are on a log10 scale; they represent ED50 in µmol/kg.

Use the examples below as a reference point.
- Compound: "Cc1ccc2c(c1)NC1(C)CCC(=O)N21 (stereo unspecified)"
  log10(ED50): 1.99
- Compound: "O=C1CCC2(c3ccc(Cl)cc3)Nc3ccccc3N12 (stereo unspecified)"
  log10(ED50): 2.22
- Compound: "O=C1CCC2(c3ccc(Cl)cc3)Nc3cc(Cl)ccc3N12 (stereo unspecified)"
  log10(ED50): 2.16

// log10(ED50) lookup, compound = O=C1CCC2(c3ccccc3)Nc3cc(Cl)ccc3N12 (stereo unspecified) , result: 1.98

---

Experiment Summary: Relative lipophilicity
Type: physicochemical
Recorded Conditions: reversed-phase TLC, acetone/water 2:1
Observation Type: RM
Please give the numeric answer without any surrounding text.

The measured RM associated with Cc1ccc2c(c1)NC1(C)CCC(=O)N21 (stereo unspecified) reads -0.284

O=C1CCC2(c3ccc(Cl)cc3)Nc3ccc(Cl)cc3N12 (stereo unspecified) has a reported RM of 0.073

RM measured on CC12CCC(=O)N1c1cc([N+](=O)[O-])ccc1N2 (stereo unspecified) = -0.237

compound O=C1CCC2(c3ccc(F)cc3)Nc3ccc(Cl)cc3N12 (stereo unspecified) , RM observed: 0.028

Entry O=C1CCC2(c3ccc(Cl)cc3)Nc3ccccc3N12 (stereo unspecified) , RM reported as -0.033

---

Species: Mus musculus
Experiment Summary: Anticonvulsant activity against audiogenic seizures in DBA/2 mice
Type: functional
Observation Type: ED50

Recorded results for 6 compounds are shown here.
- Compound: "O=C1CCC2(c3ccc(F)cc3)Nc3cc(Cl)ccc3N12 (configuration not stated)"
  ED50: "87.3 µmol/kg"
- Compound: "CC12CCC(=O)N1c1cc([N+](=O)[O-])ccc1N2 (configuration not stated)"
  ED50: "> 600 µmol/kg"
- Compound: "CC12CCC(=O)N1c1cc(Cl)ccc1N2 (configuration not stated)"
  ED50: "148 µmol/kg"
- Compound: "CC12CCC(=O)N1c1ccccc1N2 (configuration not stated)"
  ED50: "26.3 µmol/kg"
- Compound: "Cc1ccc2c(c1)N1C(=O)CCC1(C)N2 (configuration not stated)"
  ED50: "122 µmol/kg"
- Compound: "O=C1CCC2(c3ccccc3)Nc3ccccc3N12 (configuration not stated)"
  ED50: "161 µmol/kg"

# input for lookup
For O=C1CCC2(c3ccc(F)cc3)Nc3ccccc3N12 (configuration not stated) the compound record lists ED50 as 356 µmol/kg

---

Listing of entries alongside the reported ED50.
Organism: Mus musculus
Experiment Summary: Anticonvulsant activity against audiogenic seizures in DBA/2 mice
Assay type: functional
API: value field is a number in µmol/kg; no unit string.

Please review the entries below; each comes with its answer.
- Molecule: "O=C1NC(=O)C(c2ccccc2)(c2ccccc2)N1 [PHENYTOIN]"
  Units Symbol: "µmol/kg"
  ED50: 19.8
- Molecule: "O=C1CCC2(c3ccc(Cl)cc3)Nc3ccc(Cl)cc3N12 (configuration not stated)"
  Units Symbol: "µmol/kg"
  ED50: 347
- Molecule: "CCCC(CCC)C(=O)O [VALPROIC ACID]"
  Units Symbol: "µmol/kg"
  ED50: 1230
- Molecule: "O=C1CCC2(c3ccc(F)cc3)Nc3ccc(Cl)cc3N12 (configuration not stated)"
  Units Symbol: "µmol/kg"
  ED50: 178

So, CC12CCC(=O)N1c1ccc(Cl)cc1N2 (configuration not stated) ? Its ED50 was 79.4

# ED50 (molecule: O=C1CCC2(c3ccccc3)Nc3ccc(Cl)cc3N12 (configuration not stated) ) is 179
